Value source: patent US11629143B2

# experimental-system: UniProt Q9UF33
# Sequence (Q9UF33 23-1036): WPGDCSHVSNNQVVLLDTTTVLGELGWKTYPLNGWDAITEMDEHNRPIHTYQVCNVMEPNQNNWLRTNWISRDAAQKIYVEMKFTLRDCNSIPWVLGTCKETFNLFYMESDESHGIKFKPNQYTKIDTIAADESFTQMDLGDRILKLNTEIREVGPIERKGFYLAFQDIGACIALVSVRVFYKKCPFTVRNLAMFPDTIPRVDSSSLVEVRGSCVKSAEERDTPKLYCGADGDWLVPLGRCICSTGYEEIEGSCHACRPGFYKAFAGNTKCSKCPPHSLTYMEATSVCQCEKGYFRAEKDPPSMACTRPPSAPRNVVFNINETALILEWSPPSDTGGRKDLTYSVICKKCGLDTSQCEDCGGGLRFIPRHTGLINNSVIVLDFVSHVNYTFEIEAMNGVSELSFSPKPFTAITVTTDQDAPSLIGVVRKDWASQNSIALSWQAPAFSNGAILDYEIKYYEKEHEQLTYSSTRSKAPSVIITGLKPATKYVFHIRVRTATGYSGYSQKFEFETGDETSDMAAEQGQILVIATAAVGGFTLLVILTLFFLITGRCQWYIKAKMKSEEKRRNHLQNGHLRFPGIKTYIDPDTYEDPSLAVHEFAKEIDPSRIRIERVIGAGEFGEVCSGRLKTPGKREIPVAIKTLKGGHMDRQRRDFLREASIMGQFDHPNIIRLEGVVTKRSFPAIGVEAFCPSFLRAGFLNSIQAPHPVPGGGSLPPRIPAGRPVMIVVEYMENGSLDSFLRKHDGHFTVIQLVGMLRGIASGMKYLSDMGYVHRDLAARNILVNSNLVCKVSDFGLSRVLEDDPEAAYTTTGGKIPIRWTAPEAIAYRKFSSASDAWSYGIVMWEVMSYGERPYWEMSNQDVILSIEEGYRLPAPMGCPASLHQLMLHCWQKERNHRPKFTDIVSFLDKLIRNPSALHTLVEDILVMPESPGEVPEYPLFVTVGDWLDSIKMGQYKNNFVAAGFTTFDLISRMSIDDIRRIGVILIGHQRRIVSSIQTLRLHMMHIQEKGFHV
# procedure-summary: Kinase panel (mobility shift)
# Type: biochemical
# Method: The disclosed compounds were tested for activity against a panel of 299 kinases. The target enzyme was incubated with fluorescently labeled substrate and test compounds in a standardized reaction mixture in 384 well plates. Upon termination of the reaction, samples were introduced onto microfluidic chips. […] Enzyme activity was measured by direct comparison of the fluorescence in the product and substrate peaks. […]
reported-property: inhibition at 5 µM

Example entries begin here.
CNC(=O)c1cc(Oc2ccc(NC(=O)c3nc(OC)oc3-c3ccc(F)s3)cc2F)ccn1 | 50 to 79%
CNC(=O)c1cc(Oc2ccc(NC(=O)c3nc(NC)oc3-c3ccc(F)s3)cc2F)ccn1 | < 50%
CSc1nc(C(=O)Nc2ccc(Oc3ccnc(C(=O)NC4CNC4)c3)c(F)c2)c(-c2ccc(F)s2)o1 | < 50%
CNC(=O)c1cc(Oc2ccc(NC(=O)c3nc(SC)oc3-c3ccc(F)cc3F)cc2)ccn1 | ≥ 95%

Each molecule below has a reported value. Please supply its inhibition at 5 µM.
1. CNC(=O)c1cc(Oc2ccc(NC(=O)c3nc(NC)sc3-c3ccc(F)cc3F)cc2F)ccn1
2. CNC(=O)c1cc(Oc2ccc(NC(=O)c3nc(SC)oc3-c3ccc(F)c(F)c3)cc2)ccn1
3. CSc1nc(C(=O)Nc2ccc(Oc3ccnc(C(=O)NC4CNC4)c3)c(F)c2)c(-c2ccc(F)cc2)o1

["50 to 79%", "50 to 79%", "80 to 89%"]

Each molecule below has a reported value. Please supply its inhibition at 5 µM.
1. CSc1nc(C(=O)Nc2ccc(Oc3cc4cnn(C)c4cc3Br)c(F)c2)c(-c2ccc(F)cc2)o1
2. COc1nc(C(=O)Nc2ccc(Oc3ccnc(C(=O)NCC(F)(F)F)c3)c(F)c2)c(-c2ccc(F)cc2)o1
3. CSc1nc(C(=O)Nc2ccc(Oc3ccnc(C(=O)NC4COC4)c3)c(F)c2)c(-c2ccc(F)s2)o1
4. CSc1nc(C(=O)Nc2ccc(Oc3ccnc(C(=O)NCCN(C)C)c3)c(F)c2)c(-c2ccc(F)cc2)o1
5. CSc1nc(C(=O)Nc2ccc(Oc3ccnc(N)c3Cl)c(F)c2)c(-c2ccc(F)cc2)o1
6. CNC(=O)c1cc(Oc2ccc(NC(=O)c3nc(NC)oc3-c3ccc(F)cc3)cc2F)ccn1
7. CNC(=O)c1cc(Oc2ccc(NC(=O)c3nc(S(C)(=O)=O)sc3-c3ccc(F)cc3)cc2F)ccn1
8. CNC(=O)c1ccc(Oc2ccc(NC(=O)c3nc(Cl)oc3-c3ccc(F)cc3)c(F)c2)cn1

1. 50 to 79%
2. < 50%
3. < 50%
4. 80 to 89%
5. < 50%
6. 80 to 89%
7. ≥ 95%
8. 50 to 79%
